tested on: WM115; assay: apoptotic fraction of cells (caspase-3 NucView488 positive); higher = more apoptosis; details: 48 h; 0.00316 µM
Measurement Name: apoptotic fraction of cells
Enter a number only.

Consider the reported apoptotic fraction of cells for these compounds:
CN(C)CCOc1ccc(-c2nc(-c3ccncc3)c(-c3ccc4c(c3)CC/C4=N\O)[nH]2)cc1 : 0.047
CCCS(=O)(=O)Nc1ccc(F)c(C(=O)c2c[nH]c3ncc(Cl)cc23)c1F [PLX4720] : 0.0421

Given the compound Cc1ccc(NC(=O)c2cccc(C(C)(C)C#N)c2)cc1Nc1ccc2ncn(C)c(=O)c2c1 [AZ628] , what is its reported apoptotic fraction of cells?
0.0302

For the compound Cn1cnc2c(F)c(Nc3ccc(Br)cc3Cl)c(C(=O)NOCCO)cc21 [Selumetinib] , what apoptotic fraction of cells is on record?
0.0459

What does the record list as apoptotic fraction of cells for CCCS(=O)(=O)Nc1ccc(F)c(C(=O)c2c[nH]c3ncc(-c4ccc(Cl)cc4)cc23)c1F [Vemurafenib] ?
0.0621

----------
tested on: WM1552C; test: relative viability (cell count relative to DMSO-treated control) (fraction of DMSO control); higher = more viable cells / less drug effect; details: 48 h; 1 µM
relative viability: recorded values
Form field (numeric): enter value without unit.

CN(C)CCOc1ccc(-c2nc(-c3ccncc3)c(-c3ccc4c(c3)CC/C4=N\O)[nH]2)cc1 : 0.87

Returns the measured relative viability for the input molecule. Input: Cc1ccc(NC(=O)c2cccc(C(C)(C)C#N)c2)cc1Nc1ccc2ncn(C)c(=O)c2c1
0.647

Which relative viability value is on record for Cn1cnc2c(F)c(Nc3ccc(Br)cc3Cl)c(C(=O)NOCCO)cc21 ?
0.676

Report relative viability for CCCS(=O)(=O)Nc1ccc(F)c(C(=O)c2c[nH]c3ncc(Cl)cc23)c1F please.
0.795

Look up relative viability for this molecule: CCCS(=O)(=O)Nc1ccc(F)c(C(=O)c2c[nH]c3ncc(-c4ccc(Cl)cc4)cc23)c1F
0.886

----------
system: RVH421; test: relative viability (cell count relative to DMSO-treated control) (fraction of DMSO control); higher = more viable cells / less drug effect; conditions: 48 h; 0.01 µM
Values of relative viability strictly less than 0.9 map to 1 (yes), and values of at least 0.9 map to 0 (no).

Hi there! Is relative viability for CN(C)CCOc1ccc(-c2nc(-c3ccncc3)c(-c3ccc4c(c3)CC/C4=N\O)[nH]2)cc1 below 0.9, do you know?
1 (yes)

Find out if reported relative viability for Cc1ccc(NC(=O)c2cccc(C(C)(C)C#N)c2)cc1Nc1ccc2ncn(C)c(=O)c2c1 [AZ628] is less than 0.9
0 (no)

----------
tested on: RVH421; assay: apoptotic fraction of cells (caspase-3 NucView488 positive); higher = more apoptosis; conditions: 72 h; 1 µM
Items are presented alongside their recorded apoptotic fraction of cells.

Sample answers from the record:
CN(C)CCOc1ccc(-c2nc(-c3ccncc3)c(-c3ccc4c(c3)CC/C4=N\O)[nH]2)cc1 : 0.0371
CCCS(=O)(=O)Nc1ccc(F)c(C(=O)c2c[nH]c3ncc(-c4ccc(Cl)cc4)cc23)c1F : 0.0453
CCCS(=O)(=O)Nc1ccc(F)c(C(=O)c2c[nH]c3ncc(Cl)cc23)c1F : 0.051

What does the record list as apoptotic fraction of cells for Cn1cnc2c(F)c(Nc3ccc(Br)cc3Cl)c(C(=O)NOCCO)cc21 ?
0.0599

So what's the measured apoptotic fraction of cells for this one? Cc1ccc(NC(=O)c2cccc(C(C)(C)C#N)c2)cc1Nc1ccc2ncn(C)c(=O)c2c1
0.105

----------
system: C32; assay: relative viability (cell count relative to DMSO-treated control) (fraction of DMSO control); higher = more viable cells / less drug effect; settings: 48 h; 0.0316 µM
relative viability values for the compounds below.
Returns: the value as a bare number; no unit string appended.

CCCS(=O)(=O)Nc1ccc(F)c(C(=O)c2c[nH]c3ncc(-c4ccc(Cl)cc4)cc23)c1F [Vemurafenib] : 0.891

// relative viability lookup, key: CN(C)CCOc1ccc(-c2nc(-c3ccncc3)c(-c3ccc4c(c3)CC/C4=N\O)[nH]2)cc1
1.03

May I ask what relative viability has been recorded for Cn1cnc2c(F)c(Nc3ccc(Br)cc3Cl)c(C(=O)NOCCO)cc21 [Selumetinib] ?
1.15

Need relative viability of Cc1ccc(NC(=O)c2cccc(C(C)(C)C#N)c2)cc1Nc1ccc2ncn(C)c(=O)c2c1 [AZ628] , thanks.
1.01

Returns the measured relative viability for the input compound. Input: CCCS(=O)(=O)Nc1ccc(F)c(C(=O)c2c[nH]c3ncc(Cl)cc23)c1F [PLX4720]
0.929

----------
system: C32; assay: apoptotic fraction of cells (caspase-3 NucView488 positive); higher = more apoptosis; details: 48 h; 0.00316 µM
Measurement Name: apoptotic fraction of cells
Lab note: record just the number, no unit beside it.

Some entries whose results are on file:
Cn1cnc2c(F)c(Nc3ccc(Br)cc3Cl)c(C(=O)NOCCO)cc21 [Selumetinib] : 0.0773
CCCS(=O)(=O)Nc1ccc(F)c(C(=O)c2c[nH]c3ncc(-c4ccc(Cl)cc4)cc23)c1F [Vemurafenib] : 0.11
Cc1ccc(NC(=O)c2cccc(C(C)(C)C#N)c2)cc1Nc1ccc2ncn(C)c(=O)c2c1 [AZ628] : 0.0865
CCCS(=O)(=O)Nc1ccc(F)c(C(=O)c2c[nH]c3ncc(Cl)cc23)c1F [PLX4720] : 0.0967

Shift focus to the following entry.
# apoptotic fraction of cells lookup, item CN(C)CCOc1ccc(-c2nc(-c3ccncc3)c(-c3ccc4c(c3)CC/C4=N\O)[nH]2)cc1
0.0832

----------
tested on: WM115; test: relative viability (cell count relative to DMSO-treated control) (fraction of DMSO control); higher = more viable cells / less drug effect; conditions: 48 h; 0.1 µM
Measurement Name: relative viability
Lab note: record the figure alone, no unit after it.

For orientation, consider the following solved cases.
CN(C)CCOc1ccc(-c2nc(-c3ccncc3)c(-c3ccc4c(c3)CC/C4=N\O)[nH]2)cc1 : 1.44
Cn1cnc2c(F)c(Nc3ccc(Br)cc3Cl)c(C(=O)NOCCO)cc21 [Selumetinib] : 1.48
CCCS(=O)(=O)Nc1ccc(F)c(C(=O)c2c[nH]c3ncc(-c4ccc(Cl)cc4)cc23)c1F [Vemurafenib] : 1.45
Cc1ccc(NC(=O)c2cccc(C(C)(C)C#N)c2)cc1Nc1ccc2ncn(C)c(=O)c2c1 [AZ628] : 1.31

Any idea what relative viability was measured for CCCS(=O)(=O)Nc1ccc(F)c(C(=O)c2c[nH]c3ncc(Cl)cc23)c1F [PLX4720] ?
1.83

----------
tested on: WM115; experiment: apoptotic fraction of cells (caspase-3 NucView488 positive); higher = more apoptosis; details: 48 h; 0.01 µM
Below: a set of entries, each annotated with reported apoptotic fraction of cells.
Give the figure by itself; no unit, no explanation.

Below, each entry is followed by its recorded apoptotic fraction of cells result.
CN(C)CCOc1ccc(-c2nc(-c3ccncc3)c(-c3ccc4c(c3)CC/C4=N\O)[nH]2)cc1 : 0.0376
Cc1ccc(NC(=O)c2cccc(C(C)(C)C#N)c2)cc1Nc1ccc2ncn(C)c(=O)c2c1 [AZ628] : 0.0498
Cn1cnc2c(F)c(Nc3ccc(Br)cc3Cl)c(C(=O)NOCCO)cc21 [Selumetinib] : 0.0343
CCCS(=O)(=O)Nc1ccc(F)c(C(=O)c2c[nH]c3ncc(Cl)cc23)c1F [PLX4720] : 0.0454

We next turn to a different molecule, shown below.
Could you tell me which apoptotic fraction of cells is on file for CCCS(=O)(=O)Nc1ccc(F)c(C(=O)c2c[nH]c3ncc(-c4ccc(Cl)cc4)cc23)c1F [Vemurafenib] ?
0.0504

----------
test system: WM115; experiment: apoptotic fraction of cells (caspase-3 NucView488 positive); higher = more apoptosis; conditions: 24 h; 0.01 µM
Measurement Name: apoptotic fraction of cells
Write the number on its own, no unit after it.

Cn1cnc2c(F)c(Nc3ccc(Br)cc3Cl)c(C(=O)NOCCO)cc21 : 0.0509

Given CCCS(=O)(=O)Nc1ccc(F)c(C(=O)c2c[nH]c3ncc(-c4ccc(Cl)cc4)cc23)c1F , state its recorded apoptotic fraction of cells.
0.0451

Fill in: apoptotic fraction of cells of CN(C)CCOc1ccc(-c2nc(-c3ccncc3)c(-c3ccc4c(c3)CC/C4=N\O)[nH]2)cc1 is ___
0.0337

Fill in: apoptotic fraction of cells of CCCS(=O)(=O)Nc1ccc(F)c(C(=O)c2c[nH]c3ncc(Cl)cc23)c1F is ___
0.0373

Find the recorded apoptotic fraction of cells belonging to Cc1ccc(NC(=O)c2cccc(C(C)(C)C#N)c2)cc1Nc1ccc2ncn(C)c(=O)c2c1 and report it.
0.0415

----------
test system: C32; experiment: apoptotic fraction of cells (caspase-3 NucView488 positive); higher = more apoptosis; conditions: 48 h; 1 µM
Label true (1) when apoptotic fraction of cells >= 0.5; otherwise false (0).

These solved cases illustrate the format of a correct answer.
Cn1cnc2c(F)c(Nc3ccc(Br)cc3Cl)c(C(=O)NOCCO)cc21 : true (1)
CCCS(=O)(=O)Nc1ccc(F)c(C(=O)c2c[nH]c3ncc(Cl)cc23)c1F : false (0)
CN(C)CCOc1ccc(-c2nc(-c3ccncc3)c(-c3ccc4c(c3)CC/C4=N\O)[nH]2)cc1 : false (0)
Cc1ccc(NC(=O)c2cccc(C(C)(C)C#N)c2)cc1Nc1ccc2ncn(C)c(=O)c2c1 : true (1)

Turning to the following molecule.
Is reported apoptotic fraction of cells greater than or equal to 0.5 here: CCCS(=O)(=O)Nc1ccc(F)c(C(=O)c2c[nH]c3ncc(-c4ccc(Cl)cc4)cc23)c1F
false (0)

The reported numbers originate from the supplement of paper PMC4380931.
